# Ki per record follows
Biological target: m-NTPDase3 (Mus musculus, UniProt Q8BFW6)
Construct: made in house; host or cells: COS-7 cells, transient transfection; crude protein extract after sonication
Sequence (Q8BFW6 whole entry): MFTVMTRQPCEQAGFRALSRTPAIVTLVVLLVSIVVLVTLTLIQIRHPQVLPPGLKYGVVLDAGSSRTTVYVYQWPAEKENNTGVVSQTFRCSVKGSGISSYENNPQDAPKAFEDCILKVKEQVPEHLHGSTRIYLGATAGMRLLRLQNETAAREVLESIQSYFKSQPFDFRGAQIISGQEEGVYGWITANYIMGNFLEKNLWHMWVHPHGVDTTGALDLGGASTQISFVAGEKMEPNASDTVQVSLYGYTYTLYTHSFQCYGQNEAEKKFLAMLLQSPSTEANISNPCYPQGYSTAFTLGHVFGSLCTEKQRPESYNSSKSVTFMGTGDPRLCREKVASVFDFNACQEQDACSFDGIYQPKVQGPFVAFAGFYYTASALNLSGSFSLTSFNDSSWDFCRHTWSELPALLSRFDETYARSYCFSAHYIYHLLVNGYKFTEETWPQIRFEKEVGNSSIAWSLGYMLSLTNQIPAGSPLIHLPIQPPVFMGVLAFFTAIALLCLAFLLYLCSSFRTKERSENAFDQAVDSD
Assay: m-NTPDase3 inhibition, malachite green assay
Format: biochemical
Dear colleague, please return just the value in µM, with no unit written.

Illustrative cases are given below, each with its answer.
compound | Ki [µM]
O=C1Nc2ccccc2/C1=N/NC(=S)Nc1c(F)cccc1F | 0.03
COc1cccc(NC(=S)N/N=C2\C(=O)Nc3ccccc32)c1 | 0.07
Cc1ccc(C(=O)Nc2ccc(S(=O)(=O)O)c3cc(S(=O)(=O)O)cc(S(=O)(=O)O)c23)cc1NC(=O)c1cccc(NC(=O)Nc2cccc(C(=O)Nc3cc(C(=O)Nc4ccc(S(=O)(=O)O)c5cc(S(=O)(=O)O)cc(S(=O)(=O)O)c45)ccc3C)c2)c1 [Suramin, reference compound] | 3.07

Let us move to another entry and its Ki.
Lab request: please report Ki under test system m-NTPDase3 (Mus musculus, UniProt Q8BFW6) for CCNC(=S)N/N=C1\C(=O)Nc2ccccc21
0.24

====

Molecular target: h-NTPDase1 (Homo sapiens, UniProt P49961)
Construct: made in house; host or cells: COS-7 cells, transient transfection; crude protein extract after sonication
Sequence (P49961 1-510): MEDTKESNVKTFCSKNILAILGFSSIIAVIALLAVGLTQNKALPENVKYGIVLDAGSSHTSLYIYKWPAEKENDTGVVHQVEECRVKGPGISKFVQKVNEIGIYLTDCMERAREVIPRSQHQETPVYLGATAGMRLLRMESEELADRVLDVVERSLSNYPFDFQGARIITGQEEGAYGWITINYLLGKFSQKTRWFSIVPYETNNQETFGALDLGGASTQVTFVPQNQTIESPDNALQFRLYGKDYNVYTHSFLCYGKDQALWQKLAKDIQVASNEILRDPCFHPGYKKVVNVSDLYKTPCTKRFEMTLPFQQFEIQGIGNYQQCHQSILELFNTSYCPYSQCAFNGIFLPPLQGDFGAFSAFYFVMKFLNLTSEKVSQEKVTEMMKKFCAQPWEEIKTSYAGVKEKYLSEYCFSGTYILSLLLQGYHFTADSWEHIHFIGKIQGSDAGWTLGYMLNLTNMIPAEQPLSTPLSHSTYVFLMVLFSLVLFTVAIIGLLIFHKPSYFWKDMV
Test: h-NTPDase1 inhibition, malachite green assay
Assay type: biochemical
Conditions: human NTPDase1
# Ki per record follows
Express the reported value numerically, then name its unit.

chemSmiles | Ki
O=C1Nc2ccccc2/C1=N/NC(=S)Nc1ccc([N+](=O)[O-])cc1 | 0.04 µM
CCNC(=S)N/N=C1\C(=O)Nc2ccccc21 | 0.38 µM
O=C1Nc2ccccc2/C1=N/NC(=S)NCc1ccccc1 | 0.03 µM
O=C1Nc2ccccc2/C1=N/NC(=S)Nc1ccc(Cl)cc1 | 0.03 µM

Lab request: please report Ki under test system h-NTPDase1 (Homo sapiens, UniProt P49961) for COc1ccc(OC)c(NC(=S)N/N=C2\C(=O)Nc3ccccc32)c1
0.02 µM

Lab request: please report Ki under test system h-NTPDase1 (Homo sapiens, UniProt P49961) for Cc1cccc(C)c1NC(=S)N/N=C1\C(=O)Nc2ccccc21
0.24 µM

====

Target: m-NTPDase3 (Mus musculus, UniProt Q8BFW6)
Construct: made in house; host or cells: COS-7 cells, transient transfection; crude protein extract after sonication
Assay: m-NTPDase3 inhibition, malachite green assay
Format: biochemical
Conditions: compound 100 µM
Decision: inhibition at 100 µM compared against 30%; not below it gives 1, below it gives -1.

Check this compound for inhibition at 100 µM at or above 30%: Cc1ccc(NC(=S)N/N=C2\C(=O)Nc3ccccc32)cc1
1

Check this compound for inhibition at 100 µM at or above 30%: O=C1Nc2ccccc2/C1=N/NC(=S)NCc1ccccc1
1

Check this compound for inhibition at 100 µM at or above 30%: COc1ccc(NC(=S)NNC2=c3ccccc3=NC2=O)cc1
1

Check this compound for inhibition at 100 µM at or above 30%: O=C1Nc2ccccc2/C1=N/NC(=S)Nc1ccc([N+](=O)[O-])cc1
-1

Check this compound for inhibition at 100 µM at or above 30%: Cc1cccc(C)c1NC(=S)N/N=C1\C(=O)Nc2ccccc21
1

Check this compound for inhibition at 100 µM at or above 30%: O=C1Nc2ccccc2/C1=N/NC(=S)Nc1cccc(Cl)c1
-1

Check this compound for inhibition at 100 µM at or above 30%: O=C1Nc2ccccc2/C1=N/NC(=S)Nc1ccccc1
1

Check this compound for inhibition at 100 µM at or above 30%: O=C1Nc2ccccc2/C1=N/NC(=S)Nc1ccc(F)cc1
-1

====

Molecular target: h-NTPDase8 (Homo sapiens)
Construct: made in house; host or cells: COS-7 cells, transient transfection; crude protein extract after sonication
Assay: h-NTPDase8 inhibition, malachite green assay
Assay type: biochemical
Details: compound 100 µM
# inhibition at 100 µM per record follows
Dear colleague, please return just the value in %, with no unit written.

Reported inhibition at 100 µM, compound O=C1Nc2ccccc2/C1=N/NC(=S)Nc1ccc(F)cc1 [8d] : ____
33

Reported inhibition at 100 µM, compound COc1ccc(NC(=S)NNC2=c3ccccc3=NC2=O)cc1 [8k] : ____
46

Reported inhibition at 100 µM, compound CCNC(=S)N/N=C1\C(=O)Nc2ccccc21 [8m] : ____
38

Reported inhibition at 100 µM, compound O=C1Nc2ccccc2/C1=N/NC(=S)Nc1cccc(Cl)c1 [8g] : ____
7

Reported inhibition at 100 µM, compound O=C1Nc2ccccc2/C1=N/NC(=S)Nc1ccccc1 [8a] : ____
24

Reported inhibition at 100 µM, compound Cc1ccc(NC(=S)N/N=C2\C(=O)Nc3ccccc32)cc1 [8h] : ____
22

Reported inhibition at 100 µM, compound Cc1cccc(C)c1NC(=S)N/N=C1\C(=O)Nc2ccccc21 [8i] : ____
17

Reported inhibition at 100 µM, compound COc1ccc(OC)c(NC(=S)N/N=C2\C(=O)Nc3ccccc32)c1 [8j] : ____
19

====

Target: h-NTPDase8 (Homo sapiens, UniProt Q5MY95)
Construct: made in house; host or cells: COS-7 cells, transient transfection; crude protein extract after sonication
Sequence (Q5MY95 whole entry): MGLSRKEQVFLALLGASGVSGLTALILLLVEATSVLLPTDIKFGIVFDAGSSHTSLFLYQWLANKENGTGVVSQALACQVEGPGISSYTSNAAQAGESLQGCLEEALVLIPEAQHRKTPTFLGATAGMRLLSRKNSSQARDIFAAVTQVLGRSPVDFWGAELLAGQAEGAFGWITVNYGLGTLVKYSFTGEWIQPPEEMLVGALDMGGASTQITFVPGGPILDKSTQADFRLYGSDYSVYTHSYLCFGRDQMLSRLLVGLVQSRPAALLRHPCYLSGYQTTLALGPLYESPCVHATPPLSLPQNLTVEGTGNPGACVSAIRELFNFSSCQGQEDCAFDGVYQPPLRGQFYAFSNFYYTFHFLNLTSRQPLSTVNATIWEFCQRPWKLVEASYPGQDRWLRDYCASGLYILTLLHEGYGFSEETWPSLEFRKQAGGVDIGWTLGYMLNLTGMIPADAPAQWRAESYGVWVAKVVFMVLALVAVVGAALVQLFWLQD
Assay: h-NTPDase8 inhibition, malachite green assay
Assay type: biochemical
measurementType: Ki (µM)
Dear colleague, please return just the value in µM, with no unit written.

Lab request: please report Ki under test system h-NTPDase8 (Homo sapiens, UniProt Q5MY95) for O=C1Nc2ccccc2/C1=N/NC(=S)Nc1ccc(Cl)cc1 [8c]
0.11

====

Target: m-NTPDase2 (Mus musculus, UniProt O55026)
Construct: made in house; host or cells: COS-7 cells, transient transfection; crude protein extract after sonication
Sequence (O55026 1-495): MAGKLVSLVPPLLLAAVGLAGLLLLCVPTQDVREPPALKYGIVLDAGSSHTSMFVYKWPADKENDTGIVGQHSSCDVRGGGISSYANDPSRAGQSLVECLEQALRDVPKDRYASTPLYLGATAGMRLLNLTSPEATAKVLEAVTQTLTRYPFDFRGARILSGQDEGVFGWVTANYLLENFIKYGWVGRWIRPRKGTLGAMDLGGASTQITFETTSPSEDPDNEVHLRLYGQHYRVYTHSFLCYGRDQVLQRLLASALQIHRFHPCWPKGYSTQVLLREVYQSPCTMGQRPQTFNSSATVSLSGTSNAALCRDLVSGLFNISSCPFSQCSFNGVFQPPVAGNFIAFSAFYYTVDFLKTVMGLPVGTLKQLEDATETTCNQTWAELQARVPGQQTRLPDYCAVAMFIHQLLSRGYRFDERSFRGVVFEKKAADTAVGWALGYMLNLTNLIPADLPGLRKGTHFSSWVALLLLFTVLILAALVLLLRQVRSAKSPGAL
Assay: m-NTPDase2 inhibition, malachite green assay
Format: biochemical
# Ki per record follows
Dear colleague, please return just the value in µM, with no unit written.

Illustrative cases are given below, each with its answer.
molecule | Ki / µM
Cc1ccc(C(=O)Nc2ccc(S(=O)(=O)O)c3cc(S(=O)(=O)O)cc(S(=O)(=O)O)c23)cc1NC(=O)c1cccc(NC(=O)Nc2cccc(C(=O)Nc3cc(C(=O)Nc4ccc(S(=O)(=O)O)c5cc(S(=O)(=O)O)cc(S(=O)(=O)O)c45)ccc3C)c2)c1 [Suramin, reference compound] | 5.67
CCNC(=S)N/N=C1\C(=O)Nc2ccccc21 | 0.41
O=C1Nc2ccccc2/C1=N/NC(=S)Nc1c(F)cccc1F | 0.05

Let us move to another entry and its Ki.
Reported Ki, molecule Cc1cccc(C)c1NC(=S)N/N=C1\C(=O)Nc2ccccc21 : ____
0.04

====

Target: h-NTPDase1 (Homo sapiens, UniProt P49961)
Construct: made in house; host or cells: COS-7 cells, transient transfection; crude protein extract after sonication
Test: h-NTPDase1 inhibition, malachite green assay
Type: biochemical
Conditions: human NTPDase1; compound 100 µM
Decision: inhibition at 100 µM compared against 40%; not below it gives YES, below it gives NO.

chemSmiles | cat
Cc1ccc(NC(=S)N/N=C2\C(=O)Nc3ccccc32)cc1 | YES
O=C1Nc2ccccc2/C1=N/NC(=S)Nc1ccc(F)cc1 | YES
O=C1Nc2ccccc2/C1=N/NC(=S)Nc1ccccc1 | YES
O=C1Nc2ccccc2/C1=N/NC(=S)Nc1cccc(Cl)c1 | NO

Now look at this one.
Check this molecule for inhibition at 100 µM at or above 40%: COc1ccc(NC(=S)NNC2=c3ccccc3=NC2=O)cc1
YES
